System: Staphylococcus aureus
Test: Antibacterial activity against Staphylococcus aureus ATCC 6538 assessed as inhibition of bacterial growth measured after 24 hrs by turbidity based analysis
Assay type: functional
Where a SMILES comes first, the peptide text is derived from it. [ ]: non-standard residue; d: D form. Orn = NCCC[C@H](N)C(=O)O
Threshold-based label: MIC under 10 µM gives true (1), MIC not under 10 µM gives false (0).

[
  {
    "molecule": "CC(C)C[C@@H]1NC(=O)[C@H](CCCN)NC(=O)[C@H](C(C)C)NC(=O)[C@H](CCCN)NC(=O)[C@H](CCCN)NC(=O)[C@H](CCCN)NC(=O)[C@@H](Cc2ccccc2)NC(=O)[C@H](Cc2ccccc2)NC(=O)[C@@H]2CCCN2C(=O)[C@@H](Cc2ccccc2)NC1=O",
    "labelClass": "true (1)"
  },
  {
    "molecule": "CC(C)C[C@@H]1NC(=O)[C@H](CCCN)NC(=O)[C@H](C(C)C)NC(=O)[C@H](Cc2ccc(O)cc2)NC(=O)[C@H](CCCN)NC(=O)[C@H](CCCN)NC(=O)[C@@H](Cc2ccccc2)NC(=O)C(Cc2ccccc2)NC(=O)[C@@H]2CCCN2C(=O)[C@@H](Cc2ccccc2)NC1=O (single isomer, unassigned)",
    "labelClass": "true (1)"
  },
  {
    "molecule": "CC(C)[C@@H]1NC(=O)[C@H](CCCN)NC(=O)[C@H](CCCN)NC(=O)[C@H](CCCN)NC(=O)[C@@H](Cc2ccccc2)NC(=O)[C@H](Cc2ccccc2)NC(=O)[C@@H]2CCCN2C(=O)[C@@H](Cc2ccccc2)NC(=O)[C@H](CCCN)NC(=O)[C@H](CCCN)NC1=O",
    "labelClass": "false (0)"
  },
  {
    "molecule": "CC(C)C[C@@H]1NC(=O)[C@H](CCCN)NC(=O)[C@H](C(C)C)NC(=O)[C@H](Cc2ccc(O)cc2)NC(=O)[C@H](CCCN)NC(=O)[C@H](CC(N)=O)NC(=O)[C@@H](Cc2ccccc2)NC(=O)[C@H](Cc2ccccc2)NC(=O)[C@@H]2CCCN2C(=O)[C@@H](Cc2ccccc2)NC1=O (cyclo(F[dF]N[Orn]YV[Orn]L[dF]P))",
    "labelClass": "true (1)"
  },
  {
    "molecule": "CC(C)C[C@@H]1NC(=O)[C@H](CCCN)NC(=O)[C@H](C(C)C)NC(=O)[C@H](CCCN)NC(=O)[C@H](CCC(N)=O)NC(=O)[C@H](CCCN)NC(=O)[C@@H](Cc2ccccc2)NC(=O)[C@H](Cc2ccccc2)NC(=O)[C@@H]2CCCN2C(=O)[C@@H](Cc2ccccc2)NC1=O",
    "labelClass": "true (1)"
  },
  {
    "molecule": "CC(C)C[C@@H]1NC(=O)[C@H](CCCN)NC(=O)[C@H](C(C)C)NC(=O)[C@H](Cc2ccc(O)cc2)NC(=O)[C@H](CCC(N)=O)NC(=O)[C@H](CCCN)NC(=O)[C@@H](Cc2ccccc2)NC(=O)[C@H](Cc2ccccc2)NC(=O)[C@@H]2CCCN2C(=O)[C@@H](Cc2ccccc2)NC1=O",
    "labelClass": "true (1)"
  },
  {
    "molecule": "NCCC[C@@H]1NC(=O)[C@H](CCCN)NC(=O)[C@H](CCCN)NC(=O)[C@H](CCCN)NC(=O)[C@@H](Cc2ccccc2)NC(=O)[C@H](Cc2ccccc2)NC(=O)[C@@H]2CCCN2C(=O)[C@@H](Cc2ccccc2)NC(=O)[C@H](CCCN)NC(=O)[C@H](CCCN)NC1=O",
    "labelClass": "false (0)"
  }
]
